tested on: HEK-293T; assay: Incucyte cell viability with HEK293T; type: toxicity, cell-based; settings: human, 24 h, 10 µM, compound concentration 10 uM, replicate number 2; also: unitless GR value; below 1 slowed growth and below 0 cell loss
Values of Growth Rate strictly less than 0.3 map to Condition met, and values of at least 0.3 map to Condition not met.

{"compound": "CCS(=O)(=O)Nc1cccc(Oc2cc(F)cc(Nc3ccc(I)cc3F)c2NS(=O)(=O)C2CC2)c1", "assigned.label": "Condition not met"}
{"compound": "CC(C)NC(=O)[C@H]1CCC[C@H]1Nc1nc(Nc2ccc(CN(C)C)cc2)ncc1Br.Cl", "assigned.label": "Condition met"}
{"compound": "COCCN1CCN(CCn2ccc(Nc3ncc4c(n3)-c3c(nn(C)c3-c3ccccc3)C[C@H]4C)n2)CC1", "assigned.label": "Condition met"}
{"compound": "COc1ccc(F)c(F)c1C(=O)c1cnc(NC2CCN(S(C)(=O)=O)CC2)nc1N [RG-547]", "assigned.label": "Condition met"}
{"compound": "Cc1nccn1CC1CCc2c(c3ccccc3n2C)C1=O.Cl (stereo unspecified)", "assigned.label": "Condition not met"}
{"compound": "COC[C@@H](C)N[C@H]1CC[C@H](Nc2cc(-c3cccc(NCC4(C#N)CCOCC4)n3)c(Cl)cn2)CC1", "assigned.label": "Condition not met"}
{"compound": "CN1CCN(c2ccc(-n3cc(-c4ccncc4OCC4CCNCC4)cn3)cc2)CC1", "assigned.label": "Condition met"}
{"compound": "Cc1cc(O)c(-c2ccc([C@@H](C)CN(C)C)cc2)c2c1[nH]c(=O)c1sccc12", "assigned.label": "Condition met"}

Strictly below 0.3 in Growth Rate? COc1ccc(COc2ccc(Cc3cnc(N)nc3N)cc2OC)cc1 [GW632580X]
Condition not met

Criterion: Growth Rate strictly below 0.3. Is it met by "CC(C)c1ccc(/C=N/NC(=O)c2ccc(O)cc2)cc1" ?
Condition not met

Bench note: check whether CSc1ccc(C(=O)/C=C/c2cc(C)c(OC(C)(C)C(=O)O)c(C)c2)cc1 [ELAFIBRANOR] shows Growth Rate below 0.3
Condition not met

Strictly below 0.3: is that where Growth Rate of "CN(C)[C@H]1CCc2nc(NC(=O)c3cccc(Cn4cc(-c5ccc(C#N)cc5)cn4)c3)sc2C1.O=C(O)C(F)(F)F" sits?
Condition not met

Determine if COc1cc(F)ccc1-c1ncnc(Nc2cccc(C[S@](C)(=N)=O)c2)n1 [ATUVECICLIB] shows Growth Rate strictly lower than 0.3.
Condition met

Quick check: does CN1C2CCCC1CC(Nc1ccccc1Br)C2 (stereo unspecified) have Growth Rate under 0.3?
Condition not met

Take the compound "COc1ncc(-c2cc(-c3ncc(CN4C[C@@H](C)O[C@@H](C)C4)o3)c3cn[nH]c3c2)cc1NS(C)(=O)=O" and say whether its Growth Rate is less than 0.3.
Condition met

Regarding "COc1cc2ncnc(Nc3cccc(O)c3)c2cc1OC" , kindly confirm whether its Growth Rate is beneath 0.3.
Condition not met
